Cited source for all entries: the NIST ThermoML archive (doi:10.1021/je300775u)

Settings: 298.15 K; 101.3 kPa; Liquid; Vibrating tube method
quantity.kind: mass density (kg/m3)
Supply the numeric figure in kg/m3, leaving out any unit text.

Example entries and their recorded answers appear below.
ClCBr; 1921.71
CCCCCCC; 679.6
BrCBr; 2478.61

mass density for ClC(Cl)(Cl)Br ?
2002.14

----------
mass density values, listed per item
Conditions: 308.15 K; 101.3 kPa; Liquid; Vibrating tube method
Give the number; kg/m3 is assumed, so skip it.

Examples from the recorded data:
ClCBr; 1898.51
CCCCCCC; 671.04
ClC(Cl)(Cl)Br; 1980.24

Please look at the following compound next.
Look up mass density for this compound: BrCBr
2452.42
